Cited source: paper PMC8635125

So I've got a bunch of molecules here, and I need their CC50 at 24 h values.
Assay: HCA cytotoxicity toward infected macrophages (nuclear staining)
Format: cell-based, murine
Conditions: mouse, RAW264.7 macrophages infected with S. Typhimurium, infected RAW264.7 cells, read-out: 50% cytotoxic concentration (CC50) toward macrophages
Protocol: Overnight cultures of RFP-expressing S. Typhimurium were prepared for infection by 1:100 dilution in fresh LB broth and incubation for 2 h at 37°C. The bacteria were then collected by centrifugation at 6,000 × g for 3 min and suspended in phosphate-buffered saline (PBS; pH 7.2) to an optical density of 0.6 at 600 nm, which was equivalent to 5 × 10^8 CFU/mL. […] Images of individual wells were captured and analyzed using a high-content imaging system (ImageXpress Micro 4; Molecular Devices). […]
Express the result in µM but write the number alone.

Record Clc1ccc2c(c1)C(NCCN1CCNCC1)=Nc1ccccc1O2 . Reported CC50 at 24 h: 23.5

Per the record, CN1CCN(C2=Nc3ccccc3Oc3ccc(Cl)cc32)CC1 has CC50 at 24 h of 88.2
